Source of measurements: paper PMC9394307

# protocolNotes: MTT cell viability assay, GM16000 lymphocytes
# Type: cell-based
# conditionLabel: GM16000 lymphocyte cells (non-tumor), human lymphocytes, value (95% CI)
propertyLabel: CC50 at 48 h (µM)
# number only, unit µM dropped from output

| molecule | propertyLabel | reported |
| --- | --- | --- |
| COc1cc(C(=O)N(Cc2ccccc2)/N=C/c2ccccc2)cc(OC)c1OC [LASSBio-2070 (10)] | CC50 at 48 h | 0.935 |
| CCCN(/N=C/c1ccccc1)C(=O)c1cc(OC)c(OC)c(OC)c1 [LASSBio-2118 (5)] | CC50 at 48 h | 1.1 |
| C=CCN(/N=C/c1ccccc1)C(=O)c1cc(OC)c(OC)c(OC)c1 [LASSBio-2069 (8)] | CC50 at 48 h | 0.095 |
| CCCCN(/N=C/c1ccccc1)C(=O)c1cc(OC)c(OC)c(OC)c1 [LASSBio-2121 (6)] | CC50 at 48 h | 1.2 |
| CCOc1cc2ncc(C#N)c(Nc3ccc(F)c(Cl)c3)c2cc1NC(=O)/C=C/CN(C)C [Pelitinib, reference compound] | CC50 at 48 h | 0.899 |
| CCOC(=O)CN(/N=C/c1ccccc1)C(=O)c1cc(OC)c(OC)c(OC)c1 [LASSBio-2074 (11)] | CC50 at 48 h | 3.91 |

Answer with reported CC50 at 48 h of COc1cc(C(=O)N/N=C/c2ccccc2)cc(OC)c1OC [LASSBio-1586 (2)]
0.763

Read the entry CCN(/N=C/c1ccccc1)C(=O)c1cc(OC)c(OC)c(OC)c1 [LASSBio-2071 (4)] and write its reported CC50 at 48 h.
2

---

# protocolNotes: MTT cell viability assay, GM16000 lymphocytes
# Type: cell-based
# conditionLabel: GM16000 lymphocyte cells (non-tumor), human lymphocytes, value (95% CI)
propertyLabel: CC50 at 48 h (µM)
Just the number please, in µM, no unit attached.

These solved cases illustrate the format of a correct answer.
| compound | CC50 at 48 h / µM |
| --- | --- |
| COc1cc(C(=O)N(CCN2CCOCC2)/N=C/c2ccccc2)cc(OC)c1OC [LASSBio-2122 (12)] | 3.8 |
| C#CCN(/N=C/c1ccccc1)C(=O)c1cc(OC)c(OC)c(OC)c1 [LASSBio-2072 (9)] | 2.52 |

Now consider the entry below.
Assign CC50 at 48 h to the following record: COc1cc(C(=O)N(C)/N=C/c2ccccc2)cc(OC)c1OC [LASSBio-1735 (3)]
0.059

---

# System: H1975
# protocolNotes: MTT cell viability assay, H1975
# Type: cell-based, human
# conditionLabel: Homo sapiens, NCI-H1975, 48 h, MTT, 48 h; value (95% CI); read-out: CC50 (µM) (CI) H1975
CC50 for assorted compounds
Write it as a number; the unit µM goes unstated.

Illustrative cases are given below, each with its answer.
| compound | CC50 (µM) |
| --- | --- |
| CCOc1cc2ncc(C#N)c(Nc3ccc(F)c(Cl)c3)c2cc1NC(=O)/C=C/CN(C)C [Pelitinib, reference compound] | 2.57 |
| COc1cc(C(=O)N(CCN2CCOCC2)/N=C/c2ccccc2)cc(OC)c1OC [LASSBio-2122 (12)] | 6.37 |
| C#CCN(/N=C/c1ccccc1)C(=O)c1cc(OC)c(OC)c(OC)c1 [LASSBio-2072 (9)] | 5.34 |

For the compound COc1cc(C(=O)N/N=C/c2ccccc2)cc(OC)c1OC [LASSBio-1586 (2)] , give its measured CC50 value.
2.02

For the compound CCCCN(/N=C/c1ccccc1)C(=O)c1cc(OC)c(OC)c(OC)c1 [LASSBio-2121 (6)] , report CC50.
1.71

Supply recorded CC50 for C=CCN(/N=C/c1ccccc1)C(=O)c1cc(OC)c(OC)c(OC)c1 [LASSBio-2069 (8)] here.
1.65

Recall and state the measured CC50 for CCOC(=O)CN(/N=C/c1ccccc1)C(=O)c1cc(OC)c(OC)c(OC)c1 [LASSBio-2074 (11)] .
4.83
